These measurements were taken from ChEMBL document CHEMBL2177027.

Molecular target: Adenosine receptor A2a (Homo sapiens, UniProt P29274)
Sequence (P29274 whole entry): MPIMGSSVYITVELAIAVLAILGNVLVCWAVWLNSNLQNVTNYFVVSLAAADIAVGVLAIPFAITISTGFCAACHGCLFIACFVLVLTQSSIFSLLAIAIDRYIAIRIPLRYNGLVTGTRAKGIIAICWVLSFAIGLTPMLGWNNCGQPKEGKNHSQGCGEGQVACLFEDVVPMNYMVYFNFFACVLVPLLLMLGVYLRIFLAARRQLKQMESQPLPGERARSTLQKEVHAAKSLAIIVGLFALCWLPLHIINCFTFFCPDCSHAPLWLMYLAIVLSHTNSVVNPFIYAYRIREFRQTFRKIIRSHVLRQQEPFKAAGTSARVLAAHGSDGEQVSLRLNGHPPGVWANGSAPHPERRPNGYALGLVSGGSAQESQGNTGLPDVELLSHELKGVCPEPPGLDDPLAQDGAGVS
readout_kind: Ki (µM)

{"molecule": "C[C@@H](Nc1nc2nn(C)cc2c2nc(-c3ccco3)nn12)c1ccccc1", "uom": "µM", "Ki": 0.0382}
{"molecule": "Cn1cc2c(nc(N3CCCC3)n3nc(-c4ccco4)nc23)n1", "uom": "µM", "Ki": 0.132}
{"molecule": "Cn1cc2c(nc(NC(C)(C)CC(C)(C)C)n3nc(-c4ccco4)nc23)n1", "uom": "µM", "Ki": 3.23}
{"molecule": "Cn1cc2c(nc(NCCc3ccccc3)n3nc(-c4ccco4)nc23)n1", "uom": "µM", "Ki": 0.0461}
{"molecule": "Cn1cc2c(nc(NCc3ccc(F)cc3)n3nc(-c4ccco4)nc23)n1", "uom": "µM", "Ki": 0.0875}

A. CCOc1nc2nn(C)cc2c2nc(-c3ccco3)nn12
B. Cn1cc2c(nc(NCc3ccc(-c4ccccc4)cc3)n3nc(-c4ccco4)nc23)n1
C. CCCCCNc1nc2nn(C)cc2c2nc(-c3ccco3)nn12
D. Cn1cc2c(nc(Cl)n3nc(-c4ccco4)nc23)n1
E. Cn1cc2c(nc(NCCc3c[nH]c4ccccc34)n3nc(-c4ccco4)nc23)n1
Query string: Please put the entries in order of rising Ki. Rank them, then answer with their labels in that order.
Result string: E, C, B, A, D

I. CC(CCc1ccccc1)Nc1nc2nn(C)cc2c2nc(-c3ccco3)nn12 (stereo not drawn)
II. Cn1cc2c(nc(NCC3CCCCC3)n3nc(-c4ccco4)nc23)n1
III. Cn1cc2c(nc(NCc3ccc(Cl)cc3)n3nc(-c4ccco4)nc23)n1
IV. Cn1cc2c(nc(N3CCCCC3)n3nc(-c4ccco4)nc23)n1
V. CCCCN(C)c1nc2nn(C)cc2c2nc(-c3ccco3)nn12
Query string: Please put the entries in order of rising Ki. Rank them, then answer with their labels in that order.
Result string: III, I, IV, II, V

1. CCC(CO)Nc1nc2nn(C)cc2c2nc(-c3ccco3)nn12 (stereo not drawn)
2. Cn1cc2c(nc(NCCOc3ccccc3)n3nc(-c4ccco4)nc23)n1
Query string: // which entry reports the smaller Ki, 1 or 2 ? Give the label of your selection.
Result string: 2
(2: 0.121 µM, 1: 0.207 µM)

A. COc1ccc(CCNc2nc3nn(C)cc3c3nc(-c4ccco4)nn23)cc1OC
B. CONc1nc2nn(C)cc2c2nc(-c3ccco3)nn12
C. Cn1cc2c(nc(NC3CCCCCC3)n3nc(-c4ccco4)nc23)n1
Query string: Please put the entries in order of rising Ki. Rank them, then answer with their labels in that order.
Result string: A, B, C
